test: appearance of the final solution (Cosmetics, formulary consideration); format: physicochemical; details: appearance of final solution after reaction with Cu
property.name: Cosmetics

O=C(O)CCCC[C@@H]1CCSS1 (racemic) [Lipoic Acid]
clear solution
N[C@@H](CS)C(=O)O [Cysteine]
clear solution

---

assay: appearance of the final solution (Cosmetics, formulary consideration); type: physicochemical; settings: appearance of final solution after reaction with Cu
property.name: Cosmetics

CC(=O)N[C@@H](CS)C(=O)O
clear solution
O=C(O)c1cc(O)c(O)c(O)c1
ugly brown ppt.
N[C@@H](CCC(=O)N[C@@H](CS)C(=O)NCC(=O)O)C(=O)O
clear solution
CCCOC(=O)c1cc(O)c(O)c(O)c1 [Propyl gallate]
ugly brown ppt.

---

system: papilla-corium layer of skin; experiment: bioreactive skin test (pin-head like projections, activation of the papilla-corium layer); format: in vivo; parameters: key: * = slight bioreactivity; *** = gross bioreactivity; conditions: Table 1; 20 % by weight
property.name: Bioreactivity

N[C@@H](Cc1ccccc1)C(=O)O
*
O=C1NCC(C(=O)O)N1 (stereo not shown)
***
CC(=O)N1CCC[C@H]1C(=O)O
*
CC(C)(C)OC(=O)[C@@H]1CCCN1
***
